System: RXF 393 renal
Test: NCI-60 one-dose screen, 48 h (100 = growth as untreated, 0 = no growth, -100 = all killed)
Settings: 10 µM
The panel holds about 83,000 compounds, 20% with a hit somewhere; the sample as a whole holds those more often.

COMPOUND	TARGET_DESC	growth [%]
CC1(O)CCCCC1O (stereo not given)	RXF 393 renal	112
CCC(C#N)(CC)c1ccccc1	RXF 393 renal	115
CCCCC/C=N/Nc1nc(C)cc(=O)[nH]1	RXF 393 renal	105
CCCCC1C(=O)N(c2ccccc2)N(c2ccccc2)C1=O	RXF 393 renal	116
CCOC(=O)Nc1nn[nH]n1	RXF 393 renal	105
Nc1ccc(N)c([N+](=O)[O-])c1	RXF 393 renal	107
O=C(Cc1nc2ccc([N+](=O)[O-])cc2nc1CC(=O)c1cccnc1)c1cccnc1	RXF 393 renal	20.1
CC1(C)Nc2cccc3c(N=Nc4ccc(N=Nc5ccccc5)c5ccccc45)ccc(c23)N1	RXF 393 renal	124
CC(=O)OC(C(=O)O)c1ccccc1 (stereo not given)	RXF 393 renal	112
Cn1cnc2nc(Cl)nc(Cl)c21	RXF 393 renal	30.6
N/N=C(/Cc1ccccc1)NNC(N)=S	RXF 393 renal	112
CCCC[P+](c1ccccc1)(c1ccccc1)c1ccccc1	RXF 393 renal	102
COc1cc2nc3cc([N+](=O)[O-])ccc3c(Cl)c2cc1OC	RXF 393 renal	120
N#CSc1cc(S(N)(=O)=O)ccc1N	RXF 393 renal	119
CSc1[nH]c(=O)ncc1F	RXF 393 renal	105
C=CC[N+](C)(C)C	RXF 393 renal	100
Cc1ccccc1C1N=C2Oc3ccccc3C=C2C(=O)N1 (stereo not given)	RXF 393 renal	-4.6
C=CCOC(=O)C(=O)OCC=C	RXF 393 renal	103
O=c1cc(-c2ccccc2)nc2cc(-c3ccco3)[nH]n12	RXF 393 renal	100
CC(=O)CC(=O)N(C)C	RXF 393 renal	110
CC1(C)N=C(N)N=C(N)N1c1cccc(Br)c1	RXF 393 renal	66.8
Cc1nc2c(ccc3ccccc32)s1	RXF 393 renal	116
NC(=S)NN=C1CCCC1	RXF 393 renal	107
C=CC(=O)OCCCCCCCC	RXF 393 renal	120
C[C@]12CC[C@@H]3c4ccc(OCC(=O)O)cc4CC[C@H]3[C@@H]1CCC2=O	RXF 393 renal	115
Cc1cccc(C(=O)N(C(C)C)C(C)C)c1	RXF 393 renal	107
O=C(O)[C@@H]1[C@H]2C[C@H]3c4[nH]c5ccccc5c4CCN3C[C@@H]2CC[C@@H]1O	RXF 393 renal	111
O=c1cc(-c2ccccc2)oc2c1ccc1ccccc12	RXF 393 renal	90.8
CCCCCCCCO	RXF 393 renal	106
COc1ccc(/C(C#N)=C2C=C/C(=N/O)c3ccccc3\2)cc1	RXF 393 renal	53.9
CCN1C(=O)/C(=C/C=C/N(C)c2ccccc2)SC1=S	RXF 393 renal	90.3
COC(=O)c1ccc(NC(=O)CCl)cc1	RXF 393 renal	95.7
CCC(C)(O)c1ccc(C)cc1 (stereo not given)	RXF 393 renal	113
COc1cc2c3c(n(C)c(=O)c2cc1OC)-c1cc2c(cc1C3=O)OCO2	RXF 393 renal	75.7
COc1nc(N)nc2c1ncn2C1OC(CO)CC1O (stereo not given)	RXF 393 renal	112
O=C(Cc1nc2ccc([N+](=O)[O-])cc2nc1CC(=O)c1ccccc1)c1ccccc1	RXF 393 renal	89.1
CCCCCCCCCCCCCCCCC1CC(=O)OC1=O (stereo not given)	RXF 393 renal	116
COC(=O)c1[nH]c(=O)c(C#N)c(C(=O)OC)c1C(=O)c1ccccc1	RXF 393 renal	122
CN(C)Cc1cc(C(C)(C)CC(C)(C)C)ccc1O	RXF 393 renal	138
CCOC(=O)C(=O)C=P(c1ccccc1)(c1ccccc1)c1ccccc1	RXF 393 renal	106

* * *

System: IGROV1 ovarian
Assay: NCI-60 one-dose screen, 48 h
Details: 10 µM
This is part of a sample that, as a whole, favours compounds with a hit. Of some 83,000 tested, about 20% had one in any assay. The source made the active and inactive calls. The calls were made as follows: active = growth percent below 10; inactive = the rest.
Possible outcomes: 1 (yes) = active, 0 (no) = inactive

COMPOUND	CLASS_LABEL
Cc1cc(C(O)(c2ccc(Nc3ccccc3)cc2)c2ccc(Nc3ccc(S(=O)(=O)O)cc3)cc2)ccc1N (configuration not stated)	1 (yes)
O=C(O)CCC(=O)OC(C1CO1)C(OC(=O)CCC(=O)O)C1CO1 (configuration not stated)	0 (no)
C/C(=N\O)C1(O)CCCCC1	0 (no)
COC(=O)c1cc(-c2ccc(Cl)c(Cl)c2)[nH]c(=O)c1C#N	0 (no)
CCCC(C)OCC(=O)O (configuration not stated)	0 (no)
CCCCC(CC)COC(C)=O (configuration not stated)	0 (no)
CCC(O)CC(CC)CO (configuration not stated)	0 (no)

* * *

System: NCI/ADR-RES ovarian
Test: NCI-60 one-dose screen, 48 h
Details: 10 µM
Experimental: Growth inhibition of the NCI/ADR-RES human […] tumor cell line is measured as a screen for anti-cancer activity. Cells are grown in 96 well plates and exposed to the test compound for 48 hours. Compounds are tested at a single concentration, which is 10^-5 M for most compounds. The reported endpoint is percent growth (GI% or GIPRCNT), where numbers from 0 - 100% represent growth inhibition, and numbers from -100% - 0 represent cell death. For example, a value of 40 represents 60% growth inhibition. […]
The panel holds about 83,000 compounds, 20% with a hit somewhere; the sample as a whole holds those more often. Calls of active or inactive are those of the source. Rule for the calls: active = growth percent below 10; inactive = the rest.
Outcome codes: active, inactive

MOLECULE	TARGET_DESC	CLASS_LABEL
COc1ccccc1NC(=O)C1=C(C)NC(C)=C(C(=O)Nc2ccccc2OC)C1c1cccc([N+](=O)[O-])c1	NCI/ADR-RES ovarian	inactive
Cc1nc2ccccc2c2nnc(SCC(=O)N(Cc3ccccc3)c3ccccc3)n12	NCI/ADR-RES ovarian	inactive
O=C1Cc2cc(O)ccc2O1	NCI/ADR-RES ovarian	inactive
CC1(C(N)=O)CCC(C(=O)O)C1(C)C (stereo not drawn)	NCI/ADR-RES ovarian	inactive
CCCCCCCCCCC(C)Br (stereo not drawn)	NCI/ADR-RES ovarian	inactive
COc1cc2cc(OC(C)=O)c3cc4c(cc3c2c(OC)c1OC)OCO4	NCI/ADR-RES ovarian	inactive
Nc1nc(N)c2cc(S(=O)(=O)c3cccc(C(F)(F)F)c3)ccc2n1	NCI/ADR-RES ovarian	inactive
N=c1c(C(=O)OCc2ccccc2)ncc(CCl)n1O	NCI/ADR-RES ovarian	inactive
CCS(=O)(=O)CCCl	NCI/ADR-RES ovarian	inactive
COC(=O)c1ccc(C(C)C)cc1	NCI/ADR-RES ovarian	inactive
CC1(O)CCCCC1O (stereo not drawn)	NCI/ADR-RES ovarian	inactive
Cc1cc(=O)n(-c2ccc(F)cc2)[nH]1	NCI/ADR-RES ovarian	inactive
COc1cc2c(cc1O)CC[C@@H]1C2CC[C@@]2(C)C1CC[C@@H]2O (stereo partly drawn)	NCI/ADR-RES ovarian	active
O=C(NCCNC(=O)c1ccc(Cl)cc1Cl)c1ccc(Cl)cc1Cl	NCI/ADR-RES ovarian	inactive
O=C(NN=C1CCCCC1)C(=O)NN=C1CCCCC1	NCI/ADR-RES ovarian	inactive
C#C[C@H]1CCCCCC1O (stereo partly drawn)	NCI/ADR-RES ovarian	inactive
CCCNc1ccc(C2=NCCCN2)cc1	NCI/ADR-RES ovarian	inactive
Cc1cc(=O)cc(C)n1-c1ccccc1	NCI/ADR-RES ovarian	inactive
COc1ccc(-c2cc3c(nn2)-c2ccccc2C3=O)cc1	NCI/ADR-RES ovarian	inactive
O=C(CC(=O)c1ccccc1O)c1ccccc1	NCI/ADR-RES ovarian	inactive
O=C(O)COCC(=O)O	NCI/ADR-RES ovarian	inactive
CC1(C)S(=O)(=O)OCCOS1(=O)=O	NCI/ADR-RES ovarian	inactive
O=C1c2ccccc2C(=O)N1OCc1ccccc1	NCI/ADR-RES ovarian	inactive
COc1ccccc1N1CCN(C(=S)Nc2ccccc2)CC1	NCI/ADR-RES ovarian	inactive
CC(C(=O)O)(C1CCCCC1)C1(O)CCCCC1 (stereo not drawn)	NCI/ADR-RES ovarian	inactive
CC1NC(=O)NC1CCCCCC(=O)O (stereo not drawn)	NCI/ADR-RES ovarian	inactive
COc1nc(N)nc2c1ncn2C1OC(CO)CC1O (stereo not drawn)	NCI/ADR-RES ovarian	inactive
COc1ccc(/C=C/c2cccc[n+]2C)cc1	NCI/ADR-RES ovarian	inactive
COC(=O)/C=C/C(=O)NC(N)=O	NCI/ADR-RES ovarian	inactive
CCCCNC(=O)C(=O)NCCCC	NCI/ADR-RES ovarian	inactive
COc1cc(C(N)=O)cc(OC)c1OC	NCI/ADR-RES ovarian	inactive
O=C(O)c1cc([N+](=O)[O-])ccc1Cl	NCI/ADR-RES ovarian	inactive
C=C1CC/C=C(\C)C(=O)C[C@@H]2[C@@H]1CC2(C)C	NCI/ADR-RES ovarian	inactive
CCOC(=O)C(O)C(O)C(=O)OCC (stereo not drawn)	NCI/ADR-RES ovarian	inactive
Nc1ccc(N=Nc2ccc(S(=O)(=O)O)cc2)c2ccccc12	NCI/ADR-RES ovarian	inactive
O=C1C=CC(=O)N1c1ccc(I)cc1Cl	NCI/ADR-RES ovarian	inactive
CCCCOC(=O)c1ccc(C(C)C)cc1	NCI/ADR-RES ovarian	inactive
CC(C)OC(C(=O)O)c1ccccc1 (stereo not drawn)	NCI/ADR-RES ovarian	inactive
CCCCCCCCO	NCI/ADR-RES ovarian	inactive
CC1CCCCN1C(=S)Nc1ccc(S(=O)(=O)N2CCCCC2)cc1 (stereo not drawn)	NCI/ADR-RES ovarian	inactive
c1ccc(Cc2ccccc2)cc1	NCI/ADR-RES ovarian	inactive
CC(=O)OCC1CCCO1 (stereo not drawn)	NCI/ADR-RES ovarian	inactive
O=C(NC1CCCCC1)OCc1c(COC(=O)NC2CCCCC2)c(-c2ccc(Cl)c(Cl)c2)n2c1CCC2	NCI/ADR-RES ovarian	inactive
